Values were extracted from patent US20200353078A1.

I'd appreciate it if you could supply IC50 values for the items below.
- measurementTarget: T1, His10/Avi Human IL33-01 (human)
- T1 construct: Wild type mature IL-33 with N-terminal 10xHis, Avitag and Factor Xa site; biotinylated by BirA on the Avitag where used biotinylated; reduced form unless treated; also called N-terminal His Avi IL-33; His-Avi human IL-33 wild type
- T1 chain: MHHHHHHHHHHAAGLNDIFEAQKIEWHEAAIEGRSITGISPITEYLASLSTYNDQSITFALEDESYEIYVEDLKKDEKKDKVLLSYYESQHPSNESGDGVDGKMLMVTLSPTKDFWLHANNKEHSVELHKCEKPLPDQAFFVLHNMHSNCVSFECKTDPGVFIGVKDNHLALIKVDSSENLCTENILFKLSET
- measurementProtocol: HTRF epitope competition, IgG titrated; competitor DyLight labelled 33_640117 IgG; 1 hour
Provide only the numeric value, understood in pM.

Query: IC50 lookup needed for 33_640082-7 IgG1 (antibody, V domains shown, IgG1) VH: EVQLLESGGGLVQPGGSLRLSCAASGFTFSSYAMSWVRQAPGKGLEWVSGISAIDQSTYYADSVKGRFTISRDNSKNTLYLQMNSLRAEDTAVYYCARQKFMQLWGGGLRYPFGYWGQGTMVTVSS VL: SYVLTQPPSVSVSPGQTASITCSGERMGDKYAAWYQQKPGQSPVLVIYRDTKRPSGIPERFSGSNSGNTATLTISGTQAMDEADYYCGVLKQDTGVFGGGTKVTVL , thanks.
Response: 100

Query: IC50 lookup needed for 33_640237 IgG1 (antibody, V domains shown, IgG1; also called ZZ1M37-E06) VH: EVQLLESGGGLVQPGGSLRLSCAASGFTFSSYAMSWVRQAPGKGLEWVSGIADDFTSTYYADPVKGRFTISRDNSKNTLYLQMNSLRAEDTAVYYCARDLWMMNYAGGLRYPFGYWGQGTTVTVSS VL: SYVLTQPPSVSVSPGQTASITCSGERMGDKYAAWYQQKPGQSPVLVIYRDTKRPSGIPERFSGSNSGNTATLTISGTQAIDEADYYCGVLKQDTGVFGGGTKVTVL , thanks.
Response: 100

Query: IC50 lookup needed for 33_640081 IgG1 (antibody, V domains shown, IgG1; also called ZZ1JMB-H05) VH: EVQLLESGGGSVQPGGSLRLSCAASGFTFSSYAMNWVRQAPGKGLEWVSAISGSGGSTHYADSVKGRFTISRDNSKNTLYLQMNSLRAEDTAVYYCGRAKFMQLWGGGLRYPLGYWGQGTMVTVSS VL: SYVLTQPPSVSVSPGQTASITCSGERMGDKYAAWYQQKPGQSPVLVIYQDTKRPSGIPERFSGSNSGNTATLTISGTQATDEADYYCQVWAADDTGVFGGGTKVTVL , thanks.
Response: 300
